Target: human CB2 receptors (Homo sapiens)
Construct: expressed in transfected cells; membrane preparations
Sequence (P34972 whole entry): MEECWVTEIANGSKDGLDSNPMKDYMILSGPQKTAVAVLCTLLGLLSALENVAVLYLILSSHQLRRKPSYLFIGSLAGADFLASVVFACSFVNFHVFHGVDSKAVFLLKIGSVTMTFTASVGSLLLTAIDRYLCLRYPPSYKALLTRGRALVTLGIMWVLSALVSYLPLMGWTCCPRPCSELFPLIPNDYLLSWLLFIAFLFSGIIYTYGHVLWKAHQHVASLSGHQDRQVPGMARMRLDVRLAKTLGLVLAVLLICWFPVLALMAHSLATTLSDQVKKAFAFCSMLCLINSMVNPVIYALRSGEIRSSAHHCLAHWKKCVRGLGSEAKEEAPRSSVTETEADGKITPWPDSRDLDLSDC
Test: Affinity for human CB2 cannabinoid receptors: inhibition of [3H]-CP55940 binding to transfected CHO-K1 cell membranes
Conditions: inhibition constant value range, [3H]-CP55940 1 nM, Cheng-Prusoff, read-out: Ki < 5 μM
Procedure: The affinity of the compounds of the present invention for the different sub-types of cannabinoid receptors was measured according to procedures analogous to those described hereafter for the human CB2 receptor. Study of the Affinity of the Compounds for the Human CB2 Cannabinoid Receptors: The affinity of the compounds of the invention for the human CB2 receptors is determined by measuring the inhibition of the binding of [^3H]-CP55940 to transfected CHO-K1 cell membrane preparations. […]
pKi: −log10 of the molar value.
Observed Property: pKi

For orientation, consider the following solved cases.
Could you tell me which pKi is on file for `CC(C)(C)c1cc2nc(-c3ccc(-c4ccccc4)cc3)n(CCN3CCCCC3)c(=O)c2s1` ?
> 5.30

Could you tell me which pKi is on file for `COc1ccccc1CCn1c(-c2ccc(-c3ccccc3)cc2)nc2ccsc2c1=O` ?
> 5.30

Could you tell me which pKi is on file for `O=c1c2sccc2nc(-c2ccc(-c3cccc(F)c3)cc2)n1CCN1CCCCC1` ?
> 5.30

Could you tell me which pKi is on file for `O=c1c2sccc2nc(-c2ccc(-c3ccccc3F)cc2)n1CCN1CCCCC1` ?
> 5.30

Could you tell me which pKi is on file for `O=c1c2sccc2nc(-c2ccc3cc4ccccc4cc3c2)n1CCN1CCCCC1` ?
> 5.30

New cases:
Could you tell me which pKi is on file for `Cc1ccccc1-c1ccc(-c2nc3ccsc3c(=O)n2CCN2CCCCC2)cc1` ?
> 5.30

Could you tell me which pKi is on file for `Cc1cc2nc(-c3ccc(-c4ccccc4C(F)(F)F)cc3)n(CCN3CCCCC3)c(=O)c2s1` ?
> 5.30

Could you tell me which pKi is on file for `Cc1cc2nc(-c3ccc(-c4cccc(F)c4)cc3)n(CCN3CCCCC3)c(=O)c2s1` ?
> 5.30
